Biological target: thymidylate synthase (TS) (zebrafish, UniProt A0ACM8Q3Q5 1-318)
Sequence (A0ACM8Q3Q5 entry or part of it): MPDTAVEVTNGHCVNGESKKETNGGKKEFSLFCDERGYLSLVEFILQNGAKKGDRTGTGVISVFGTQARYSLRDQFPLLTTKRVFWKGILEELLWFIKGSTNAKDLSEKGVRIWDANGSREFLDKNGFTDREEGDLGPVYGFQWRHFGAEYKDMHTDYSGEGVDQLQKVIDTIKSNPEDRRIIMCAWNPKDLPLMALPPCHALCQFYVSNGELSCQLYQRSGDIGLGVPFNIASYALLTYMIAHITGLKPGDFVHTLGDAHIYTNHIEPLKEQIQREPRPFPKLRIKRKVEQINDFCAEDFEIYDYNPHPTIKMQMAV
Assay: competition EMSA; vs 32P full-length TS mRNA; 37 C, 10 min; 100 ng TS (200 ng in Fig. 5B legend), 1 ng 32P TS mRNA; non-denaturing 5% acrylamide gel (60:1); binding buffer, salt and pH not given (cited ref. 16)
Settings: protein: recombinant; tags: His-tag removed by thrombin; chain copies: 2; hairpin (MFold), 6 nt loop
Observed Property: IC50 (nM)
Provide only the numeric value, understood in nM.

Reported IC50 ( CUCUUGUUGUGCUGCAGGAU (structured_RNA) [TS:N20 (TS13-32)] ) = 0.62
